- assaySystem: human IGF-IR (Homo sapiens)
- Construct: complete human IGF-IR cDNA: GenBank Acc; No. NM_000875
- Sequence (P08069 31-1367): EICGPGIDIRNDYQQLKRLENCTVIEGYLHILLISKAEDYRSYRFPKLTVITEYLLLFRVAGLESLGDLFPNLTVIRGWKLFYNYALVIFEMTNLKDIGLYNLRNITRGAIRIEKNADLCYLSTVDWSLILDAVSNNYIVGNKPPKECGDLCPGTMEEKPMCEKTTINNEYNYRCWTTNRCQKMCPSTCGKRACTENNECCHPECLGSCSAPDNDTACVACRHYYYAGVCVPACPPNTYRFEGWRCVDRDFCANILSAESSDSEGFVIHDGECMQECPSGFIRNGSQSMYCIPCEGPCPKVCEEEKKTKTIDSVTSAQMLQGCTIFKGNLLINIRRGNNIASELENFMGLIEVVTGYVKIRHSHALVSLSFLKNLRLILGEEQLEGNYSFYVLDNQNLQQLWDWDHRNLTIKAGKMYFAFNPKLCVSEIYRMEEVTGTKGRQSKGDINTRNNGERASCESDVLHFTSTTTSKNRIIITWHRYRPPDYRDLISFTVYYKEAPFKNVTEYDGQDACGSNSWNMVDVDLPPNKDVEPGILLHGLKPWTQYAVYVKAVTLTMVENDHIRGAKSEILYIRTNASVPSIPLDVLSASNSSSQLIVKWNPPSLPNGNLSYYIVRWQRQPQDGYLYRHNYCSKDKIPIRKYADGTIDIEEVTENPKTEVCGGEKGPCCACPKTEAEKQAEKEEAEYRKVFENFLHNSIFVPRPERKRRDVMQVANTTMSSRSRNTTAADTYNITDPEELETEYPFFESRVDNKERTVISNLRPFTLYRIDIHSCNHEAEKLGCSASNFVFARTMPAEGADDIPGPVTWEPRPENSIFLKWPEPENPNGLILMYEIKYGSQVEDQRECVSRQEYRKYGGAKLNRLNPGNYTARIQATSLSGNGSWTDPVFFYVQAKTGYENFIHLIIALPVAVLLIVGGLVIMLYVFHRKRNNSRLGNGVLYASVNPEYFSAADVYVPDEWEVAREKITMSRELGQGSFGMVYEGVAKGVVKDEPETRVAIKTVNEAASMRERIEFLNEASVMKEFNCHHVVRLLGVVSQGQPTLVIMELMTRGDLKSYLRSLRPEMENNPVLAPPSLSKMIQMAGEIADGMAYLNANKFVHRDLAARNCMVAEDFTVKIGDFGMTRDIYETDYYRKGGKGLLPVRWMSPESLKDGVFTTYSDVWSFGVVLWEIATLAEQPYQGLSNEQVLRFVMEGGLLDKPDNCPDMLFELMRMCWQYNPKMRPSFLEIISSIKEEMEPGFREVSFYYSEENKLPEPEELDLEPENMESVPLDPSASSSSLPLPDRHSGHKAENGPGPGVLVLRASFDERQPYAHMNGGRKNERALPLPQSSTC
- protocolNotes: cellular "Capture ELISA" test for activity against IGF-I induced IGF-IR autophosphorylation
- experimentalContext: IGF-I (10 ng/ml) induced IGF-IR autophosphorylation in NIH-3T3 mouse fibroblasts transfected with human IGF-IR (NWT-21 cell line); 90 min compound incubation
- Description: In this assay the activity of the compounds of the invention against Insulin-like growth factor I (IGF-I) induced autophosphorylation of the IGF-IR is determined. The assay is conducted as follows: The cells which overexpress human IGF-IR are cultured in Dulbecco's minimal essential (DMEM) medium, containing 10% Fetal Calf Serum (FCS). […] On day 3 the medium is discarded and the cells are incubated for 24 h in minimal medium (DMEM, containing 0.5% FCS). […]
quantityName: IC50 (nM)

INSERT INTO measurements (molecule, assaysystem, quantityname, observedmeasurement) VALUES
  ('Nc1ncnc2c1c(-c1cccc(OCc3ccccc3)c1)cn2[C@H]1CC[C@H](N2CCC2)CC1', 'human IGF-IR (Homo sapiens)', 'IC50', 350);

(A) CCN(CC)[C@H]1CC[C@H](n2c(C)c(-c3cccc(OCc4ccccc4)c3)c3c(N)ncnc32)CC1
(B) Nc1ncnc2c1c(-c1cccc(OCc3ccccc3)c1)cn2[C@H]1CC[C@@H](N2CCC2)CC1
Q: Looking at A and B , which one comes out lower in IC50 terms? Refer to your chosen item by its label in the answer.
Result: B
(B: 120 nM, A: 400 nM)

Data origin: patent US20060058324A1
